tested on: HeLa Kyoto; assay: thermal stability score vs G1/S (z-score of summed log2 fold changes over temperatures); higher = more thermally stable than in G1/S; conditions: cell cycle stage: early G1 (4.5 h after nocodazole release);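 further: synchronized HeLa Kyoto cells, proteins quantified by TMT10plex mass spectrometry, three biological replicates, mitosis taken 0.5 h after nocodazole release, G1/S directly after double thymidine block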
Quick list: thermal stability score per entry.

{"Monomer Sequence": "MADGELNVDSLITRLLEVRGCRPGKIVQMTEAEVRGLCIKSREIFLSQPILLELEAPLKICGDIHGQYTDLLRLFEYGGFPPEANYLFLGDYVDRGKQSLETICLLLAYKIKYPENFFLLRGNHECASINRIYGFYDECKRRFNIKLWKTFTDCFNCLPIAAIVDEKIFCCHGGLSPDLQSMEQIRRIMRPTDVPDTGLLCDLLWSDPDKDVQGWGENDRGVSFTFGADVVSKFLNRHDLDLICRAHQVVEDGYEFFAKRQLVTLFSAPNYCGEFDNAGGMMSVDETLMCSFQILKPSEKKAKYQYGGLNSGRPVTPPRTANPPKKR [PPP1CB]", "thermal stability score": 0.423}
{"Monomer Sequence": "MPLELELCPGRWVGGQHPCFIIAEIGQNHQGDLDVAKRMIRMAKECGADCAKFQKSELEFKFNRKALERPYTSKHSWGKTYGEHKRHLEFSHDQYRELQRYAEEVGIFFTASGMDEMAVEFLHELNVPFFKVGSGDTNNFPYLEKTAKKGRPMVISSGMQSMDTMKQVYQIVKPLNPNFCFLQCTSAYPLQPEDVNLRVISEYQKLFPDIPIGYSGHETGIAISVAAVALGAKVLERHITLDKTWKGSDHSASLEPGELAELVRSVRLVERALGSPTKQLLPCEMACNEKLGKSVVAKVKIPEGTILTMDMLTVKVGEPKGYPPEDIFNLVGKKVLVTVEEDDTIMEELVDNHGKKIKS [NANS]", "thermal stability score": -1.59}
{"Monomer Sequence": "MGGFFSSIFSSLFGTREMRILILGLDGAGKTTILYRLQVGEVVTTIPTIGFNVETVTYKNLKFQVWDLGGQTSIRPYWRCYYSNTDAVIYVVDSCDRDRIGISKSELVAMLEEEELRKAILVVFANKQDMEQAMTSSEMANSLGLPALKDRKWQIFKTSATKGTGLDEAMEWLVETLKSRQ [ARL1]", "thermal stability score": 2.08}

All values here come from the supplement of paper PMC5998384.
